All values here come from ChEMBL document CHEMBL1139605.

Reported values of pIC50 for individual entries
Molecular target: Glucocorticoid receptor (Homo sapiens, UniProt P04150)
Sequence (P04150 whole entry, canonical isoform): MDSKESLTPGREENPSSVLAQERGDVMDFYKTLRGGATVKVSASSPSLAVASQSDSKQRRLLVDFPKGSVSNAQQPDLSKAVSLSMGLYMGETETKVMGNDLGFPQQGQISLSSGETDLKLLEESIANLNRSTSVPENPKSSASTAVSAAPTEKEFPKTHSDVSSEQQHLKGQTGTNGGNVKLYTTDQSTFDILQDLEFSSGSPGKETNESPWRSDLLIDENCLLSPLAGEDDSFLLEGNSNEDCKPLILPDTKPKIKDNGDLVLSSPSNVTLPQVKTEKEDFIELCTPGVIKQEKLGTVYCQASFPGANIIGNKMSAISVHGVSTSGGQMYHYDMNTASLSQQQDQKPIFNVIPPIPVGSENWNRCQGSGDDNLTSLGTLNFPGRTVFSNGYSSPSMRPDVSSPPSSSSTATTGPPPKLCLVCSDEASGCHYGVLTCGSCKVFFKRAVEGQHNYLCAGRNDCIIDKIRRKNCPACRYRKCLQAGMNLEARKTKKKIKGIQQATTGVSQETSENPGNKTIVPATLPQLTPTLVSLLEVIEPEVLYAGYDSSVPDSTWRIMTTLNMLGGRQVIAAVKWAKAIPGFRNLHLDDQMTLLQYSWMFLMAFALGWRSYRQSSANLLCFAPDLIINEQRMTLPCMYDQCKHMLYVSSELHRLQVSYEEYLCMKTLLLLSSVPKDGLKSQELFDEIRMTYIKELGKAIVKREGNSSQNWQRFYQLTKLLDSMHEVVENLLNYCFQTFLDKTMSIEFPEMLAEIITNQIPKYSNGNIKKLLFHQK
Assay: Inhibition of human glucocorticoid receptor alpha isoform
Note on pIC50: it is the negative log10 of concentration, concentration in mol/L.

SMILES_REPRESENTATION | pIC50
C=C[C@H]1CO[C@]2(CCC3=Cc4c(cnn4-c4ccc(F)cc4)C[C@@]32C)O1 | 8.25
C[C@@H]1C[C@H](C)O[C@@]2(CCC3=Cc4c(cnn4-c4ccc(F)cc4)C[C@@]32C)O1 | 8.51

Prompt: Please give the measured pIC50 for this molecule: C/C=C/[C@H]1OC2(CCC3=Cc4c(cnn4-c4ccc(F)cc4)C[C@@]32C)O[C@@H]1/C=C/C
Completion: 8.57

----------
Target: UniProt P04150
Experiment: Inhibition of human glucocorticoid receptor alpha isoform
MEASURED_ENDPOINT: IC50 (nM)
Provide the reading as a plain figure in nM.

Observe how each entry below is paired with its result.
COMPOUND | UNIT_LABEL | EXPERIMENTAL_RESULT
C[C@@H]1C[C@@H](C)OC2(CCC3=Cc4c(cnn4-c4ccc(F)cc4)C[C@@]32C)O1 (stereo in doubt; form 2) | nM | 8.4
C[C@@H]1CC(C)(C)O[C@]2(CCC3=Cc4c(cnn4-c4ccc(F)cc4)C[C@@]32C)O1 | nM | 2.2
C[C@@H]1C[C@@H](C)OC2(CCC3=Cc4c(cnn4-c4ccc(F)cc4)C[C@@]32C)O1 (stereo in doubt; form 1) | nM | 8.4

Prompt: Short answer please: IC50, UniProt P04150, entry CC[C@H]1OC2(CCCC3=Cc4c(cnn4-c4ccc(F)cc4)C[C@@]32C)O[C@@H]1CC
Completion: 5.5

Prompt: Quick one: C[C@]12Cc3cnn(-c4ccc(F)cc4)c3C=C1CCCC21OCCO1
Completion: 14

Prompt: Proceed to C[C@@H]1CCO[C@@]2(CCC3=Cc4c(cnn4-c4ccc(F)cc4)C[C@@]32C)O1
Completion: 18

Prompt: Also check CCCC[C@H]1OC2(CCCC3=Cc4c(cnn4-c4ccc(F)cc4)C[C@@]32C)O[C@@H]1CCCC
Completion: 22

Prompt: Consider next the compound C[C@]12Cc3cnn(-c4ccc(F)cc4)c3C=C1CCCC21O[C@H](c2ccccc2)[C@@H](c2ccccc2)O1 in the same way.
Completion: 10

----------
Species on record: Mus musculus
Test: Effective concentration required for interleukin-6 transrepression in peritoneal exudate cells of C57B1/6 mouse using 69% Dexamethasone
Type: functional, cell-based
MEASURED_ENDPOINT: pEC50
Quick note: pEC50 means taking -log10 of the concentration in moles per liter.

Prompt: Give its pEC50 value. Item: C[C@H]1C[C@H](C)OC2(CCC3=Cc4c(cnn4-c4ccc(F)cc4)C[C@@]32C)O1 (stereo partly specified)
Completion: 7.27

----------
Test: Volume of distribution in mouse at 2 mg/kg i.v. administration
Assay type: ADME, organism-based
Design: dose 2 mg/kg, route intravenous
Conditions: in vivo, iv, read-out: Volume of distribution
MEASURED_ENDPOINT: Vd
// return the numeric value with its unit appended

Prompt: // query Vd value for entry C=C[C@H]1OC2(CCC3=Cc4c(cnn4-c4ccc(F)cc4)C[C@@]32C)O[C@@H]1C=C
Completion: 15.3 L/kg

----------
Test: Volume of distribution in mouse at 2 mg/kg IV administration
Type: ADME, organism-based
Set-up: dose 2 mg/kg, route intravenous
Details: in vivo, read-out: Volume of distribution
MEASURED_ENDPOINT: Vd
# answer = value followed by unit

Prompt: What Vd value was documented for this molecule, C[C@H]1C[C@H](C)OC2(CCC3=Cc4c(cnn4-c4ccc(F)cc4)C[C@@]32C)O1 (stereo partly specified) ?
Completion: 27.2 L/kg
